For each of the molecules below, state its growth inhibition.
- experimentalDetails: NCI Yeast Anticancer Drug Screen. Data for the rad50 strain (AID 155);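 also: 0% = growth of vehicle-only cultures of the same strain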
- condition: S. cerevisiae rad50 strain growth inhibition; at 50.0 µM; active compounds read high
This is part of a sample that, as a whole, favours compounds with a hit. Of some 79,000 tested, about 15% had one in any assay.
The figure you give is taken to be in %; do not add the unit.

Return the recorded growth inhibition value; entry: CC(C)=CCC/C(C)=C/CCC1(C)C=Cc2c(c3ccccc3oc2=O)O1 (configuration not stated)
20.1

Return the recorded growth inhibition value; entry: CCn1c2ccc(N)cc2c2c(N)c(-n3cccc3)ccc21
94.5

Return the recorded growth inhibition value; entry: COc1ccc2c(ccc[n+]2CC(=O)c2ccc(-c3ccccc3)cc2)c1
13.1

Return the recorded growth inhibition value; entry: O=C1c2cc([N+](=O)[O-])cc3cc([N+](=O)[O-])cc(c23)C(=O)N1CCNCCN1C(=O)c2cc([N+](=O)[O-])cc3cc([N+](=O)[O-])cc(c23)C1=O
81.2

Return the recorded growth inhibition value; entry: O=S1(=O)CCc2ccccc2C(Br)C1Br (configuration not stated)
100

Return the recorded growth inhibition value; entry: O=C1C2=C(c3ccccc31)C(c1ccccc1Cl)NC(=S)N2 (configuration not stated)
82.2

Return the recorded growth inhibition value; entry: O=C(c1ccccc1)c1cccc2ccccc12
56.2

Return the recorded growth inhibition value; entry: CCCCCCCCCCN(CCCCCCCCCC)CC(O)c1cc(-c2ccccc2)nc2ccccc12 (configuration not stated)
36.2

Return the recorded growth inhibition value; entry: CC(C)=CCc1c2c(c(O)c3c(=O)c(-c4ccc(O)cc4O)coc13)C=CC(C)(C)O2
83.2

Return the recorded growth inhibition value; entry: COc1c(O)ccc2c1CN1CCc3cc4c(cc3C1C2)OCO4 (configuration not stated)
65.9

Return the recorded growth inhibition value; entry: CC(=O)OC(C)(C)N=Nc1ccc(Br)cc1
97.9

Return the recorded growth inhibition value; entry: Cc1cc(Br)cc(C)c1NC(=O)C(=O)C(C(=O)c1ccc2ccccc2c1)C1OC(=O)c2ccccc21 (configuration not stated)
12.5

Return the recorded growth inhibition value; entry: CC(C)(C)CCCC(C(=O)O)c1ccccc1 (configuration not stated)
82.6

Return the recorded growth inhibition value; entry: Cc1[nH]c2ccccc2c1C(C)CC(O)c1ccccc1 (configuration not stated)
95

Return the recorded growth inhibition value; entry: O=C1C(=O)c2cc(Cl)ccc2-c2ccc(Cl)cc21
91

Return the recorded growth inhibition value; entry: COc1cc2c(cc1OC)[C@H]1C(=O)c3cc4c(cc3[C@H]1N(C)C2=O)OCO4
10.3

Return the recorded growth inhibition value; entry: N=c1n(CC(=O)NC23CC4CC(CC(C4)C2)C3)c2ccccc2n1CC(=O)NC12CC3CC(CC(C3)C1)C2
59.1

Return the recorded growth inhibition value; entry: O=[N+]([O-])c1ccc(C(Nc2ccccc2)c2ccc3cccnc3c2O)cc1 (configuration not stated)
71.9

Return the recorded growth inhibition value; entry: CCCN(CCC)Cc1cc2c(cc1O)CC[C@@H]1[C@@H]2CC[C@]2(C)C(=O)CC[C@@H]12
84

Return the recorded growth inhibition value; entry: COc1ccc(CCCCC(=O)O)cc1O
40.9

Return the recorded growth inhibition value; entry: CN(C)C(=S)SN(C)C(=O)Nc1ccccc1
70.3

Return the recorded growth inhibition value; entry: O=C1CNC(=O)c2cc(Cl)ccc2N1
-8.75
